Entries and their z-score
Test: yeast growth modulation, basal conditions, primary screen, YJM789 clinical isolate, OD600, 24 h (AID 1089);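 further: growth of clinical yeast isolate S. cerevisiae YJM 789 seeded 1000 cells per well; test concentration not given here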
Details: S. cerevisiae YJM789 growth, higher = more signal, called active from +8 up or from −8 down
test readout: z-score

smiles notation: [N-]=[N+]=Nc1ccccc1[C@H]1OC(c2ccc(OCCCO)cc2)=N[C@@]1(CCS(=O)(=O)c1ccccc1)C(N)=O
value measured: -0.268
--
smiles notation: COc1ccc([C@H]2OC[C@@H]3C[C@@H](Cc4ccccc4)C(=O)N32)cc1
value measured: -2.03
--
smiles notation: COc1ccc(CCNC(=O)[C@@]2(C)c3ccccc3C(=O)N(C(C)C)[C@H]2c2ccc(CO)cc2)cc1
value measured: -0.122
--
smiles notation: CCCC[C@@H]1C[C@H]1[C@@H](NC(=O)c1ccco1)c1ccc(-c2ccccc2)cc1
value measured: 0.186

---

Entries and their composite z-score
Test system: Fibrinogen (Alexa647-labelled)
Experiment: fibrinogen binders on compound microarrays, profiling panel, artefact control for SMM control-protein annotation, biochemical, small-molecule microarray, 635/667 nm fluorescence (AID 1131);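 further: z-score merges 667 nm fluorescence with per-spot signal-to-noise over triplicate slides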
Settings: fibrinogen-A647 binding fluorescence, higher = more signal
test readout: composite z-score

molecule: [N-]=[N+]=NCc1ccccc1C[C@]1(C(=O)N2CCCCC2)N=C(c2ccc(OCCCO)cc2)O[C@H]1c1ccccc1N=[N+]=[N-]
value measured: 0.984

molecule: COc1cc2c(cc1OC)CN(C(=O)[C@H]1[C@@H]3C(=O)O[C@@H](c4ccccc4)[C@@H](c4ccccc4)N3[C@@H](c3ccc(O)cc3)[C@]13C(=O)Nc1ccccc13)CC2
value measured: 0.253

molecule: N#Cc1ccc(NN2C(C(O)C(c3ccccc3)c3ccccc3)C=CC3C(=O)N(c4ccccc4)C(=O)C32)cc1 (stereo unspecified)
value measured: 1.01

molecule: C=CC[C@]1(C(=O)NCc2ccccc2)N=C(c2ccc(OCCCO)cc2)O[C@H]1c1ccccc1N=[N+]=[N-]
value measured: 0.971

molecule: COCCOC(=O)N1C(=O)[C@@]2(c3cc(C#Cc4ccc(OC)cc4)ccc31)[C@H](c1ccc(O)cc1)N1[C@H](c3ccccc3)[C@H](c3ccccc3)OC(=O)[C@H]1[C@@H]2C(=O)N1CCc2cc(OC)c(OC)cc2C1
value measured: 0.935

molecule: COC(=O)[C@H](Cc1ccccc1)N[C@@H](/C=C/C1CC1)[C@H](O)Cc1ccccc1
value measured: 0.475

---

Target: Luciferin 4-monooxygenase (Photinus pyralis) (UniProt P08659)
Sequence (P08659 whole entry, looked up): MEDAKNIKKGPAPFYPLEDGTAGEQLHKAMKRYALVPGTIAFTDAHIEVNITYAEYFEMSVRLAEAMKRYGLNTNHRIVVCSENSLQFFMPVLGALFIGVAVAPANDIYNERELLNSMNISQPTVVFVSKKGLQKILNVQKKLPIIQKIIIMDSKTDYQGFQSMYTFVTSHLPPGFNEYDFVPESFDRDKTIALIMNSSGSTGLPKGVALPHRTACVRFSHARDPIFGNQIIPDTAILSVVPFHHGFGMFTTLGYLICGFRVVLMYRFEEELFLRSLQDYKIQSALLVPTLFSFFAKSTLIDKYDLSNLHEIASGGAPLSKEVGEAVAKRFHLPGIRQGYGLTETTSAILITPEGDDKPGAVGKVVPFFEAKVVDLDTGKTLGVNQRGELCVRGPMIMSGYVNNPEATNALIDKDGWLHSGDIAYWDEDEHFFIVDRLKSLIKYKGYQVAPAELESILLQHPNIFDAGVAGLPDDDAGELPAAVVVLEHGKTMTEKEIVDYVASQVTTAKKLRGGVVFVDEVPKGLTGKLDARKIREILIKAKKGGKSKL
Experiment: firefly luciferase enzyme inhibitors, primary screen, biochemical, luminescence, purified enzyme, 2006 set (AID 1141);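 further: cell-free assay with purified firefly luciferase at 100 ng per well in PBS; test concentration not given here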
Conditions: SteadyGlo luminescence, 30 min, higher = more signal, called active from +8 up or from −8 down
Entries and their z-score
test readout: z-score

compound: C[N+](C)(C)CCCCCCNC(=O)[C@@H]1C[C@@H]2C(=O)N[C@@H](Cc3ccccc3)C(=O)N2[C@@H]1c1cccc(OCCO)c1
target or test system: Luciferin 4-monooxygenase (Photinus pyralis) (UniProt P08659)
test readout: z-score
value measured: -0.205

compound: Cc1ccc(N2C(=O)c3ccccc3[C@@H](C(=O)NC3CC3)[C@@H]2c2ccc(CO)cc2)nc1
target or test system: Luciferin 4-monooxygenase (Photinus pyralis) (UniProt P08659)
test readout: z-score
value measured: 0.309

compound: COC(=O)[C@@]1(Cc2ccccc2)N=C(c2ccc(OCCCO)cc2)O[C@H]1c1ccccc1
target or test system: Luciferin 4-monooxygenase (Photinus pyralis) (UniProt P08659)
test readout: z-score
value measured: -5.51

compound: CCOC(=O)C1=C[C@@H](C(C)(C)C)N(S(=O)(=O)c2ccc(C)cc2)[C@H]1c1ccc(F)cc1
target or test system: Luciferin 4-monooxygenase (Photinus pyralis) (UniProt P08659)
test readout: z-score
value measured: 1.53

compound: CCOC(=O)C[C@H]1[C@H](OC(=O)c2cc3ccccc3oc2=O)[C@@H](NC(=O)c2ccccc2)c2cc(OCCCO)ccc2N1C(=O)c1ccc2ccccc2n1
target or test system: Luciferin 4-monooxygenase (Photinus pyralis) (UniProt P08659)
test readout: z-score
value measured: 0.409

compound: COc1ccccc1CN1C(=O)c2ccccc2[C@@]2(Cc3ccccc3N(CC(C)C)C2=O)[C@@H]1c1ccc(CO)cc1
target or test system: Luciferin 4-monooxygenase (Photinus pyralis) (UniProt P08659)
test readout: z-score
value measured: -0.35

compound: COCCOC(=O)N1C(=O)[C@@]2(c3cc(C#Cc4ccc(OC)cc4)ccc31)[C@H](c1ccccc1OCCO)N1[C@H](c3ccccc3)[C@H](c3ccccc3)OC(=O)[C@H]1[C@@H]2C(=O)NC[C@H](O)c1ccccc1
target or test system: Luciferin 4-monooxygenase (Photinus pyralis) (UniProt P08659)
test readout: z-score
value measured: 0.385

compound: CCCC=C(CCC)[C@@H](NC(=O)c1cccs1)c1ccc(C(F)(F)F)cc1
target or test system: Luciferin 4-monooxygenase (Photinus pyralis) (UniProt P08659)
test readout: z-score
value measured: -2.34

compound: CO[C@H]1O[C@H](CO)[C@@H](OC(=O)Nc2cccc(F)c2)[C@H](OC(=O)Nc2ccccc2)[C@@H]1OC(=O)Nc1ccccc1
target or test system: Luciferin 4-monooxygenase (Photinus pyralis) (UniProt P08659)
test readout: z-score
value measured: 0.0107

compound: C=C(COC)/C(=C/C[C@@H](OC(C)=O)c1ccc(OCCO)cc1)c1cnc2ccccc2c1
target or test system: Luciferin 4-monooxygenase (Photinus pyralis) (UniProt P08659)
test readout: z-score
value measured: -0.846

compound: CCc1cccc(NC(=O)O[C@H]2[C@H](OC(=O)Nc3ccccc3-c3ccccc3)[C@@H](OC(=O)Nc3ccccc3-c3ccccc3)[C@@H](OC)O[C@@H]2CO)c1
target or test system: Luciferin 4-monooxygenase (Photinus pyralis) (UniProt P08659)
test readout: z-score
value measured: 0.532

compound: O=C1N[C@@H](Cc2ccccc2)C(=O)N2[C@@H]1C[C@@H](C(=O)O)[C@H]2c1cccc(OCCO)c1
target or test system: Luciferin 4-monooxygenase (Photinus pyralis) (UniProt P08659)
test readout: z-score
value measured: -1.91

compound: OCCCC1=CC(c2cccs2)N(Cc2cc3c(cc2Br)OCO3)CC1 (stereo not given)
target or test system: Luciferin 4-monooxygenase (Photinus pyralis) (UniProt P08659)
test readout: z-score
value measured: -0.0407

compound: CC(=O)n1cc(C(O)C2C=CC3C(=O)N(c4ccccc4)C(=O)C3N2Nc2ccc([N+](=O)[O-])cc2)c2ccccc21 (stereo not given)
target or test system: Luciferin 4-monooxygenase (Photinus pyralis) (UniProt P08659)
test readout: z-score
value measured: 1.08

compound: C=C(CCCC)C(=O)CC[C@@H](OC(=O)c1ccccc1-c1ccccc1C(=O)O)c1ccc(OCCO)cc1
target or test system: Luciferin 4-monooxygenase (Photinus pyralis) (UniProt P08659)
test readout: z-score
value measured: -2.06

---

Entries and their z-score
Assay: PSAC antagonists in infected red cells, primary screen, cell-based, P. falciparum Indochina, OD700, 1 h (AID 1154)
Conditions: P. falciparum Indochina infected RBC osmotic lysis, higher = more signal, called active from +8 up or from −8 down
test readout: z-score

molecule: CC[C@@H]1C=C(C(=O)O)[C@H](c2ccc(Br)cc2)N1S(=O)(=O)c1ccc(C)cc1
value measured: 0.471
--
molecule: O=C(NCCO)C1=C[C@H](Oc2ccccc2I)[C@@H](O)[C@H](N(Cc2ccco2)C(=O)Cc2ccccc2)C1
value measured: 0.877
--
molecule: CCOC(=O)C[C@H]1[C@H](OC(=O)c2ccc(C(=O)c3ccccc3)cc2)[C@@H](NC(=O)c2ccccc2)c2cc(OCCCO)ccc2N1C(=O)c1ccc2ccccc2n1
value measured: 2.66
--
molecule: COc1ccc(C#Cc2ccc3c(c2)[C@]2(C(=O)N3)[C@H](c3ccccc3OCCO)N3[C@H](c4ccccc4)[C@H](c4ccccc4)OC(=O)[C@H]3[C@@H]2C(=O)Nc2nc3ccccc3s2)cc1
value measured: 1.35
--
molecule: COCCOC(=O)N1C(=O)[C@@]2(c3cc(C#CC4(O)CCCCCC4)ccc31)[C@H](c1ccc(OCCO)cc1)N1[C@H](c3ccccc3)[C@H](c3ccccc3)OC(=O)[C@H]1[C@@H]2C(=O)N1CCN(c2ncccn2)CC1
value measured: 7.73
--
molecule: CCCCC(CC)C(O)C1C=CC2C(=O)N(Cc3ccccc3)C(=O)C2N1n1cnnc1 (configuration not stated)
value measured: 0.218
--
molecule: C=CCC(OC(C)=O)[C@@H]1[C@@H](N(Cc2ccc(-c3cccc(C(F)(F)F)c3)o2)C(=O)c2ccc(C)cc2)c2cc(OCCCO)ccc2N1C(=O)Cc1ccc2ccccc2c1 (some centres not stated)
value measured: 1.05

---

Assay: PSAC antagonists in infected red cells, primary screen, cell-based, P. falciparum Indochina, OD700, 2 h (AID 1155);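 further: lysis reports solute entry through the parasite surface anion channel PSAC; channel blockers reduce lysis of infected cells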
Conditions: P. falciparum Indochina infected erythrocytes, osmotic lysis OD700, called active from +8 up or from −8 down
Calls of active or inactive are those of the source.
Outcomes: active, inactive

compound: CC(=O)NCCCC[C@@H]1NC(=O)[C@H]2C[C@@H](C(=O)NCCCCCCNC(=O)CS)[C@@H](c3ccc(O)cc3)N2C1=O
category: inactive
--
compound: C=C(C)[C@@H]1CC=C(C(O)C2C=CC3C(=O)N(C)C(=O)C3N2Nc2ccccc2)CC1 (some centres undefined)
category: inactive
--
compound: O=C(OCc1ccccc1)C1=CCC2c3[nH]c4ccccc4c3C(=O)C1N2S(=O)(=O)c1ccccc1[N+](=O)[O-] (centres undefined)
category: inactive
--
compound: COC(=O)[C@@]1(CCC(=O)OC(C)(C)C)N=C(c2ccc(OCCCO)cc2)O[C@H]1c1ccccc1N=[N+]=[N-]
category: active
